assay: Pharmacokinetic study in beagles; assay type: in vivo; settings: beagle, dog, plasma, 1 mg/kg, IV 1mpk
MEASURED_QUANTITY: AUC(0-t) (ng·h/mL)
State the answer as a number, implicitly in ng·h/mL.

Short answer for CNC(=O)c1ccc(NCC#Cc2cc3c(N[C@@H]4CCN(C)C[C@@H]4F)cccc3n2CC(F)(F)F)c(OC)c1 [Control compound, reference compound] : AUC(0-t) was 849

* * *

Each record here notes measured SC150.
target: p53-Y220C mutant protein (Homo sapiens, UniProt P04637, Y220C); construct: The recombinant Y220C p53 DBD protein with his-tag; test: In vitro DNA binding activity assay (TR-FRET); assay type: biochemical; details: concentration required to increase the binding activity of protein to DNA by 50%
Please make sure the unit comes right after the number.

SMILES_STR	SC150
Cc1cc(C(=O)NCC#Cc2nn3c(N[C@@H]4CCN(C)C[C@@H]4F)cccc3c2CC(F)(F)F)cn1C	11 nM
CN1CC[C@@H](Nc2cccc3c(CC(F)(F)F)c(C#CCNC(=O)c4ccn5c4CCC5)nn23)[C@@H](F)C1	25 nM
COC(C)(C)Cn1ccc(C(=O)NCC#Cc2nn3c(N[C@@H]4CCN(C)C[C@@H]4F)cccc3c2CC(F)(F)F)c1	12 nM

Short answer for COCCn1ccc(C(=O)NCC#Cc2nn3c(N[C@@H]4CCN(C)C[C@@H]4F)cccc3c2CC(F)(F)F)c1 : SC150 was 9 nM

Short answer for CN1CC[C@@H](Nc2cccc3c(CC(F)(F)F)c(C#CCNC(=O)c4ncn(C)n4)nn23)[C@@H](F)C1 : SC150 was 29 nM

Short answer for CN1CC[C@@H](Nc2cccc3c(CC(F)(F)F)c(C#CCNC(=O)c4ccn(C)c4)nn23)[C@@H](F)C1 : SC150 was 13 nM

Short answer for CCn1ncc(C(=O)NCC#Cc2nn3c(N[C@@H]4CCN(C)C[C@@H]4F)cccc3c2CC(F)(F)F)c1N : SC150 was 6 nM

* * *

Each record here notes measured IC50.
tested on: BXPC-3 cells; assay: BXPC-3 3D cell proliferation assay (methylcellulose, CTG, 7 days); type: cell-based; conditions: Homo sapiens, 168 h, drug treatment for 7 days
State the answer as a number, implicitly in nM.

COMPOUND	MEASURED_QUANTITY	OBSERVED_MEASUREMENT
CNC(=O)c1ccc(NCC#Cc2cc3c(N[C@@H]4CCN(C)C[C@@H]4F)cccc3n2CC(F)(F)F)c(OC)c1 [Control compound, reference compound]	IC50	769

# next compound below
Short answer for CN1CC[C@@H](Nc2cccc3c(CC(F)(F)F)c(C#CCNC(=O)c4cnn(C(C)(C)C)c4N)nn23)[C@@H](F)C1 : IC50 was 180

* * *

assay: Pharmacokinetic study in beagles; format: in vivo; settings: dog, plasma, IV 1mpk/PO 2mpk
MEASURED_QUANTITY: bioavailability (%)
State the answer as a number, implicitly in %.

Short answer for CN1CC[C@@H](Nc2cccc3c(CC(F)(F)F)c(C#CCNC(=O)c4cnn(C(C)(C)C)c4N)nn23)[C@@H](F)C1 : bioavailability was 42

* * *

Each record here notes measured SC150.
target: p53-Y220C mutant protein (Homo sapiens, UniProt P04637, Y220C); construct: The recombinant Y220C p53 DBD protein with his-tag; assay: In vitro DNA binding activity assay (TR-FRET); assay type: biochemical; conditions: concentration required to increase the binding activity of protein to DNA by 50%
State the answer as a number, implicitly in nM.

Use these answered entries as a reference point.
COMPOUND	DISPLAY_UNIT	SC150
CC(C)c1cc(C(=O)NCC#Cc2nn3c(N[C@@H]4CCN(C)C[C@@H]4F)cccc3c2CC(F)(F)F)on1 [Compound 323]	nM	57
Cc1c(C(=O)NCC#Cc2nn3c(N[C@@H]4CCN(C)C[C@@H]4F)cccc3c2CC(F)(F)F)cnn1C1CC1 [Compound 282]	nM	19
CN1CC[C@@H](Nc2cccc3c(CC(F)(F)F)c(C#CCNC(=O)c4cnn(C(C)(C)C#N)c4)nn23)[C@@H](F)C1 [Compound 248]	nM	14

Case CN1CC[C@@H](Nc2cccc3c(CC(F)(F)F)c(C#CCNC(=O)c4cnn(C5(C)CC5)c4N)nn23)[C@@H](F)C1 [Compound 263] , p53-Y220C mutant protein (Homo sapiens, UniProt P04637, Y220C), SC150 recorded as 4

Case CC(n1ncc(C(=O)NCC#Cc2nn3c(N[C@@H]4CCN(C)C[C@@H]4F)cccc3c2CC(F)(F)F)c1N)C(F)(F)F (single isomer, unassigned) [Compound 355A] , p53-Y220C mutant protein (Homo sapiens, UniProt P04637, Y220C), SC150 recorded as 7

Case CCN1CC[C@@H](Nc2cccc3c(CC(F)(F)F)c(C#CCNC(=O)c4cnn(C(C)C)c4N)nn23)[C@@H](F)C1 [Compound 365] , p53-Y220C mutant protein (Homo sapiens, UniProt P04637, Y220C), SC150 recorded as 5

Case CN1CC[C@@H](Nc2cccc3c(CC(F)(F)F)c(C#CCNC(=O)C4CC45CC5)nn23)[C@@H](F)C1 (stereo partly shown) [Compound 241] , p53-Y220C mutant protein (Homo sapiens, UniProt P04637, Y220C), SC150 recorded as 82

Case CC(C1CC1)n1ncc(C(=O)NCC#Cc2nn3c(N[C@@H]4CCN(C)C[C@@H]4F)cccc3c2CC(F)(F)F)c1N (single isomer, unassigned) [Compound 291B] , p53-Y220C mutant protein (Homo sapiens, UniProt P04637, Y220C), SC150 recorded as 4

Case CN1CCC(n2cc(C(=O)NCC#Cc3nn4c(N[C@@H]5CCN(C)C[C@@H]5F)cccc4c3CC(F)(F)F)cn2)CC1 [Compound 012] , p53-Y220C mutant protein (Homo sapiens, UniProt P04637, Y220C), SC150 recorded as 4

Case CN1CCC2(CC1)CC(Nc1cccc3c(CC(F)(F)F)c(C#CCNC(=O)c4cnn(C(C)(C)C)c4N)nn13)C2 [Compound 367] , p53-Y220C mutant protein (Homo sapiens, UniProt P04637, Y220C), SC150 recorded as 27

Case CN1CC[C@@H](Nc2cccc3c(CC(F)(F)F)c(C#CCNC(=O)c4cnn(CCO)c4)nn23)[C@@H](F)C1 [Compound 310] , p53-Y220C mutant protein (Homo sapiens, UniProt P04637, Y220C), SC150 recorded as 11

Case CNC(=O)c1ccc(NCC#Cc2cc3c(N[C@@H]4CCN(C)C[C@@H]4F)cccc3n2CC(F)(F)F)c(OC)c1 [Control compound, reference compound] , p53-Y220C mutant protein (Homo sapiens, UniProt P04637, Y220C), SC150 recorded as 14

Case CN1CC[C@@H](Nc2cccc3c(CC(F)(F)F)c(C#CCNC(=O)c4ccc(N5CCCC5)nc4)nn23)[C@@H](F)C1 [Compound 315] , p53-Y220C mutant protein (Homo sapiens, UniProt P04637, Y220C), SC150 recorded as 52

* * *

target: p53-Y220C mutant protein (Homo sapiens, UniProt P04637, Y220C); construct: The recombinant Y220C p53 DBD protein with his-tag; test: In vitro DNA binding activity assay (TR-FRET); type: biochemical; conditions: concentration required to increase the binding activity of protein to DNA by 50%
MEASURED_QUANTITY: SC150 (nM)
State the answer as a number, implicitly in nM.

COMPOUND	EXPERIMENTAL_TARGET	MEASURED_QUANTITY	DISPLAY_UNIT	OBSERVED_MEASUREMENT
CC(C)(C)n1ncc(C(=O)NCC#Cc2nn3c(N[C@@H]4CCNC[C@@H]4F)cccc3c2CC(F)(F)F)c1N	p53-Y220C mutant protein (Homo sapiens, UniProt P04637, Y220C)	SC150	nM	9
CN1CC[C@@H](Nc2cccc3c(CC(F)(F)F)c(C#CCNC(=O)c4cnn(CC5CCCC5)c4N)nn23)[C@@H](F)C1	p53-Y220C mutant protein (Homo sapiens, UniProt P04637, Y220C)	SC150	nM	28
CN1CC[C@@H](Nc2cccc3c(CC(F)(F)F)c(C#CCNC(=O)C4C5COCC54)nn23)[C@@H](F)C1 (stereo partly shown)	p53-Y220C mutant protein (Homo sapiens, UniProt P04637, Y220C)	SC150	nM	75
CN1CC[C@@H](Nc2cccc3c(CC(F)(F)F)c(C#CCNC(=O)c4cnn(CC5CCC5)c4N)nn23)[C@@H](F)C1	p53-Y220C mutant protein (Homo sapiens, UniProt P04637, Y220C)	SC150	nM	12
CCn1cc(C(=O)NCC#Cc2nn3c(N[C@@H]4CCN(C)C[C@@H]4F)cccc3c2CC(F)(F)F)c(N)n1	p53-Y220C mutant protein (Homo sapiens, UniProt P04637, Y220C)	SC150	nM	9
CN1CC[C@@H](Nc2cccc3c(CC(F)(F)F)c(C#CCNC(=O)c4cnn(C5(F)CC5)c4)nn23)[C@@H](F)C1	p53-Y220C mutant protein (Homo sapiens, UniProt P04637, Y220C)	SC150	nM	13
Cc1cc(N[C@@H]2CCN(C)C[C@@H]2F)n2nc(C#CCNC(=O)c3cnn(C(C)(C)C)c3N)c(CC(F)(F)F)c2c1	p53-Y220C mutant protein (Homo sapiens, UniProt P04637, Y220C)	SC150	nM	160
COc1cccc(C(=O)NCC#Cc2nn3c(N[C@@H]4CCN(C)C[C@@H]4F)cccc3c2CC(F)(F)F)c1	p53-Y220C mutant protein (Homo sapiens, UniProt P04637, Y220C)	SC150	nM	41
CNc1c(C(=O)NCC#Cc2nn3c(N[C@@H]4CCN(C)C[C@@H]4F)cccc3c2CC(F)(F)F)cnn1C(C)(C)C	p53-Y220C mutant protein (Homo sapiens, UniProt P04637, Y220C)	SC150	nM	32
CC(n1cc(C(=O)NCC#Cc2nn3c(N[C@@H]4CCN(C)C[C@@H]4F)cccc3c2CC(F)(F)F)cn1)C(F)(F)F (stereo partly shown)	p53-Y220C mutant protein (Homo sapiens, UniProt P04637, Y220C)	SC150	nM	15

Short answer for CN1CC[C@@H](Nc2cccc3c(CC(F)(F)F)c(C#CCNC(=O)c4cnn(C5CCC5)c4)nn23)[C@@H](F)C1 : SC150 was 11

Short answer for CN1CC[C@@H](Nc2cccc3c(CC(F)(F)F)c(C#CCNC(=O)c4cnn(C)n4)nn23)[C@@H](F)C1 : SC150 was 35

Short answer for CN1CC2CCC(C1)C2Nc1cccc2c(CC(F)(F)F)c(C#CCNC(=O)c3cnn(C(C)(C)C)c3N)nn12 (stereo not shown) : SC150 was 57

Short answer for CCc1cc(C(=O)NCC#Cc2nn3c(N[C@@H]4CCN(C)C[C@@H]4F)cccc3c2CC(F)(F)F)cs1 : SC150 was 68

Short answer for CN(C)C1CC[C@@H](Nc2cccc3c(CC(F)(F)F)c(C#CCNC(=O)c4cnn(C(C)(C)C)c4N)nn23)[C@@H](F)C1 (single isomer, unassigned) [Compound 358-A] : SC150 was 2

Short answer for CC(n1ncc(C(=O)NCC#Cc2nn3c(N[C@@H]4CCN(C)C[C@@H]4F)cccc3c2CC(F)(F)F)c1N)C(F)(F)F (single isomer, unassigned) [Compound 355B] : SC150 was 16

Short answer for Cc1cc(C(=O)NCC#Cc2nn3c(N[C@@H]4CCN(C)C[C@@H]4F)cccc3c2CC(F)(F)F)c[nH]1 : SC150 was 13

Short answer for CN1CC[C@@H](Nc2cccc3c(CC(F)(F)F)c(C#CCNC(=O)c4ccc(N5CCC5)nc4)nn23)[C@@H](F)C1 : SC150 was 35

Short answer for CN1CC[C@@H](Nc2cccc3c(CC(F)(F)F)c(C#CCNC(=O)c4cnn(CC5CC5)c4N)nn23)[C@@H](F)C1 : SC150 was 8

Short answer for CN1CC[C@@H](Nc2cccc3c(CC(F)(F)F)c(C#CCNC(=O)c4cn(C(C)(C)C)nn4)nn23)[C@@H](F)C1 : SC150 was 29

Short answer for CC(C)n1cnc(C(=O)NCC#Cc2nn3c(N[C@@H]4CCN(C)C[C@@H]4F)cccc3c2CC(F)(F)F)c1 : SC150 was 28

Short answer for Cc1cc(C(=O)NCC#Cc2nn3c(N[C@@H]4CCN(C)C[C@@H]4F)cccc3c2CC(F)(F)F)co1 : SC150 was 24

Short answer for COCC(O)CN1CCC(Nc2cccc3c(CC(F)(F)F)c(C#CCNC(=O)c4cnn(C(C)(C)C)c4N)nn23)CC1 (stereo not shown) : SC150 was 12

Short answer for CN1CC[C@@H](Nc2cccc3c(CC(F)(F)F)c(C#CCNC(=O)c4cn(C(C)(C)C)nc4O)nn23)[C@@H](F)C1 : SC150 was 87

Short answer for CN1CC[C@@H](Nc2cccc3c(CC(F)(F)F)c(C#CCNC(=O)c4cnn(CC5CC5)c4)nn23)[C@@H](F)C1 : SC150 was 10

Short answer for CN1CC[C@@H](Nc2cccc3c(CC(F)(F)F)c(C#CCNC(=O)c4cnn(C5(C)CCOCC5)c4)nn23)[C@@H](F)C1 : SC150 was 13

Short answer for CN1CC[C@@H](Nc2cccc3c(CC(F)(F)F)c(C#CCNC(=O)c4cc5n(c4)CCOC5)nn23)[C@@H](F)C1 : SC150 was 13

Short answer for CN1CC[C@@H](Nc2cccc3c(CC(F)(F)F)c(C#CCNC(=O)c4cnn5c4CCCC5)nn23)[C@@H](F)C1 : SC150 was 18

Ref: patent EP4737449A1
